Each recorded value in this set is attributed to patent US20250154283A1.

Overview of reported Kd across a group of binders:
- target desc: T1, biotinylated cynomolgus monkey VWF cysteine knot (CK) domain construct (cynomolgus monkey, biotinylated in vitro (BirA) on the biotinylation tag; one N-glycan)
- T1 construct: Expressed in HEK293 EBNA cells; disulfide-linked homodimer; also called cyno VWF CK; cyno VWF CK domain; not shown: in vitro biotinylation tag, HRV-3C site and 3 VWF residues before the CK domain
- T1 chain: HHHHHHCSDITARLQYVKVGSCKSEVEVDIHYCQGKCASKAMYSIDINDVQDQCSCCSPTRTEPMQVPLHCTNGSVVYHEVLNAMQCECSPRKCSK
- method: SPR, scFv captured via anti-SV5, CK domain injected, pH 7.4, apparent Kd;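 further: scFvs from crude yeast supernatants printed on an amine-coupled anti-SV5 lawn, Kd computed as koff over kon, likely overestimating affinity because the CK construct is dimeric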
Please respond with the number in nM and leave the unit unwritten.

[
  {
    "binder": "4675_Lib4_scFv (scFv, VH-linker-VL; not shown: C-terminal 3xFLAG and SV5 tags) scFv: QVQLQESGPGLVKPSQTLSLTCTVSGFSLTSHPEGVNWIRQPPGKGLEWIGYIAHSGTTDYNPSLKSRVTMSVDTSKNQFSLKVNSVTAADTAVYYCARAYGDSDAFDIWGQGTMVTVSSSGGSTITSYNVYYTKLSSSGTEIVMTQSPATLSLSPGERATLSCRASQSIGRNLAWYQQKPGQAPRLLIYGASKRVTGIPARFSGSGSGTDFTLTISSLEPEDFAVYYCQQYSTWPTFGGGTKVEIK",
    "Kd, nM": 2.42
  }
]

With those in mind, consider the next binder.
Q. Which Kd value belongs to Lib1_P1_A1_scFv (scFv, VH-linker-VL; not shown: C-terminal 3xFLAG and SV5 tags) scFv: QVQLVQSGAEVKKPGASVKVSCKVSGDTLSNYAIHWVRQAPGKGLEWMGGINPNAGTTIYAQKFQGRVTMTEDTSTDTAYMELSSLKSEDTAVYYCARDSSSWSQFGYYYYYMDVWGKGTTVTVSSSGGSTITSYNVYYTKLSSSGTDIQMTQSPSSVSASVGDRVTITCRASQSIGDFLAWYQQKPGKAPKLLIYDASHLQTGVPSRFSGSGSGTDFTLTISSLQPEDFANYYCQQTSTIPPTFGGGTKVEIK ?
A. 1.08
